Listed here are binders together with their documented kon.
# target_under_test: T1, EsCas13d, nuclease-dead (Eubacterium siraeum, UniProt B0MS50, R295A;H300A;R849A;H854A)
# T1 sequence: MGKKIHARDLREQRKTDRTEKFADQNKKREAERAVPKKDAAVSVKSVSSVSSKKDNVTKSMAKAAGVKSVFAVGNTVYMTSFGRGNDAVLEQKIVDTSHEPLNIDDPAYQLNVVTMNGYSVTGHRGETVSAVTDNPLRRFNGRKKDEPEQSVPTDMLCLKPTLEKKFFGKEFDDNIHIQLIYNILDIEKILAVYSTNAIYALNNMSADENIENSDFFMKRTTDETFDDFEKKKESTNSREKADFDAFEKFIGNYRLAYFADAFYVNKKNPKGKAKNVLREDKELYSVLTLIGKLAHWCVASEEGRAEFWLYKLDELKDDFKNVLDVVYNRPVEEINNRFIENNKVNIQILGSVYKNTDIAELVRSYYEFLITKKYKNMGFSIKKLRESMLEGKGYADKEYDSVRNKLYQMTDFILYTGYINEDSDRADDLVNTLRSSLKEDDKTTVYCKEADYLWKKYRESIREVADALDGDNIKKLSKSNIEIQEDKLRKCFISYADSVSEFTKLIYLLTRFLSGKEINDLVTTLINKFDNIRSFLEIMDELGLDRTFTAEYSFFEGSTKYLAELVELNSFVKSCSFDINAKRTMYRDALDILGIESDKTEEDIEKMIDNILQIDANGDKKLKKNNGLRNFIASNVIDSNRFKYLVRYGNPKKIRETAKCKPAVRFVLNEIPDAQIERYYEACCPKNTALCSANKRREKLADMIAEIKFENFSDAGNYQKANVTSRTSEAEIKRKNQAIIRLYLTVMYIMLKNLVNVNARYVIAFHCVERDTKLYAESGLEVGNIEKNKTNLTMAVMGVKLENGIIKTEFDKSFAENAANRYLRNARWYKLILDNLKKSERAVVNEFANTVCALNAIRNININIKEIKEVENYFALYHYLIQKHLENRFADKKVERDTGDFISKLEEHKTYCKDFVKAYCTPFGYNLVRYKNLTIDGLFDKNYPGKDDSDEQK
# measurement_protocol: BLI; crRNA (strand 1, pre-loaded); Mg2+; 40 mM Tris-HCl pH 7.5, 150 mM NaCl, 6 mM MgCl2, 1 mM DTT, 0.1% Tween-20, 0.2 mg/ml BSA; temperature not stated
# measurement_conditions: tags: His6-TwinStrep-SUMO cleaved; label: 3' biotin on strand 2
readout_label: kon (M⁻¹ s⁻¹)

* target 1 G5U (60-mer) (mixed) RNA 1: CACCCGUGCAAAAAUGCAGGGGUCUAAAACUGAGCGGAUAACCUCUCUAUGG RNA 2: CCACAUCUACGAAUUCGUACCAUAGAGAGGUUAUCCUCUCACCGAGAUCGGAAGAGCACA | 45000
* target 1 3'-GUU (60-mer) (mixed) RNA 1: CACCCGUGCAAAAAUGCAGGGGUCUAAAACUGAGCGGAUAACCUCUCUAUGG RNA 2: CCACAUCUACGAAUUCGUACCAUAGAGAGGUUAUCCGCUCAGUUAGAUCGGAAGAGCACA | 250000
* crRNA-1 (MT) target (mixed) RNA 1: CACCCGUGCAAAAUUGCAGGGGUCUAAAACUUUUGGUUGACCACAUCUUGAA RNA 2: UUGGAAAACUUCAAGAUGUGGUCAACCAAAAUGCACAAGC | 96000
* target 1 G15A (60-mer) (mixed) RNA 1: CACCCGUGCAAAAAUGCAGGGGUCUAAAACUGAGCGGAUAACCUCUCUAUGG RNA 2: CCACAUCUACGAAUUCGUACCAUAGAAAGGUUAUCCGCUCACCGAGAUCGGAAGAGCACA | 180000
* target 1 C7A (60-mer) (mixed) RNA 1: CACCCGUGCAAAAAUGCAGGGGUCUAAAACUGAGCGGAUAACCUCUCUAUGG RNA 2: CCACAUCUACGAAUUCGUACCAUAGAGAGGUUAUACGCUCACCGAGAUCGGAAGAGCACA | 220000
* target 1 5'-UAA (60-mer) (mixed) RNA 1: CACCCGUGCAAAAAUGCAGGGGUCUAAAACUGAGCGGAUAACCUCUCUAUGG RNA 2: CCACAUCUACGAAUUCUAACCAUAGAGAGGUUAUCCGCUCACCGAGAUCGGAAGAGCACA | 100000
* target 1 3'-UAA (60-mer) (mixed) RNA 1: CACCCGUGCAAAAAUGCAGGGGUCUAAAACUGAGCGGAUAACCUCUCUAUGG RNA 2: CCACAUCUACGAAUUCGUACCAUAGAGAGGUUAUCCGCUCAUAAAGAUCGGAAGAGCACA | 100000
* target 1 3'-GGU (60-mer) (mixed) RNA 1: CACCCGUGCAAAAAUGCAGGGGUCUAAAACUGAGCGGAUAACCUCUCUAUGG RNA 2: CCACAUCUACGAAUUCGUACCAUAGAGAGGUUAUCCGCUCAGGUAGAUCGGAAGAGCACA | 120000
